Give measured GI50 for each item. Keep answers brief.
# Test system: MDA-MB-231
# measurement-description: Growth inhibition of human MDA-MB-231 cells
# Type: functional
Answers are plain numbers, in nM.

// GI50 lookup, key: "Cc1cc(Cl)ccc1Nc1nc(C(F)(F)F)ccc1C(=O)Nc1cccc(C(F)(F)F)c1"
2040

Next record, please: "COc1cc(NC(=O)c2ccc(C(F)(F)F)nc2Nc2cc(Cl)ccc2C)cc(OC)c1OC"
1660

Next record, please: "Cc1ccc(Cl)cc1Nc1nc(C(F)(F)F)ccc1C(=O)Nc1cccc(C(F)(F)F)c1"
2290

With those in mind, consider the next compound.
// GI50 lookup, key: "COc1ccc(NC(=O)c2ccc(C(F)(F)F)nc2Nc2ccc(Cl)cc2C)cc1Cl"
1660

---

# System: SK-MEL-5
# measurement-description: Growth inhibition of human SK-MEL5 cells
# Format: functional
# condition-set: read-out: Log TGI (converted)
readout-kind: TGI (µM)
Give bare numbers, in µM.

Please look at the items below and tell me TGI for each one, in order.
1. Cc1cc(Cl)ccc1Nc1nc(C(F)(F)F)ccc1C(=O)Nc1cccc(C(F)(F)F)c1
2. Cc1ccc(Cl)cc1Nc1nc(C(F)(F)F)ccc1C(N)=O
3. Cc1ccc(Cl)cc1Nc1nc(C(F)(F)F)ccc1C(=O)Nc1cccc(C(F)(F)F)c1
4. COc1cc(NC(=O)c2ccc(C(F)(F)F)nc2Nc2cc(Cl)ccc2C)cc(OC)c1OC

1: 9.33; 2: 6.61; 3: 4.47; 4: 10

---

# System: IGROV-1
# measurement-description: Growth inhibition of human IGROV1 cells
# Assay type: functional
# note: boundary value 1000 nM maps to criterion not met; GI50 below it maps to criterion met

Study these solved cases before continuing.
Given the entry "COc1cc(NC(=O)c2ccc(C(F)(F)F)nc2Nc2ccc(Cl)cc2C)cc(OC)c1OC" , would its reported GI50 be below 1000 nM?
criterion met

Next record, please: "COc1ccc(N2CCN(C(=O)c3ccc(C(F)(F)F)nc3Nc3cc(Cl)ccc3C)CC2)cc1"
criterion met

Next record, please: "Cc1ccc(Cl)cc1Nc1nc(C(F)(F)F)ccc1C(=O)N1CCN(c2ccc(F)cc2)CC1"
criterion met

Next:
Given the entry "Cc1ccc(Cl)cc1Nc1nc(C(F)(F)F)ccc1C(=O)Nc1cccc(C(F)(F)F)c1" , would its reported GI50 be below 1000 nM?
criterion not met

Next record, please: "Cc1cc(Cl)ccc1Nc1nc(C(F)(F)F)ccc1C(=O)N1CCN(c2cccc(Cl)c2)CC1"
criterion not met

Next record, please: "COc1cc(NC(=O)c2ccc(C(F)(F)F)nc2Nc2cc(Cl)ccc2C)cc(OC)c1OC"
criterion met
